The following molecules are listed with their measured Percent Effect values.
biological target: Tyrosyl-tRNA synthetase, putative (Trypanosoma cruzi (strain CL Brener)); experiment: Trypanosoma cruzi tyrosyl tRNA synthetase (TcYRS) SOP; format: functional; design: scale not given: direction of the effect not stated beside the values; conditions: 30 µM
PROPERTY LABEL: Percent Effect (%)

INSERT INTO measurements (molecule, property_label, result_units, obs_value) VALUES
  ('Cn1cnc2c1C(COCC1CCOCC1)CN(C(=O)c1ccoc1)C2 (stereo unspecified)', 'Percent Effect', '%', 6.41),
  ('N#Cc1cc(NC(=O)C2CC=CC2)ccc1N1CCC(O)CC1', 'Percent Effect', '%', 7.32),
  ('COc1c(CNC(c2ccc(F)cc2)c2nccn2C)c(C)nn1C (stereo unspecified)', 'Percent Effect', '%', 29.3),
  ('CNC(=O)[C@@]12CCO[C@@H]1CCN(Cc1scnc1C)C2', 'Percent Effect', '%', 6.41),
  ('Cc1ccccc1CN1CCCN(C2CCOC2=O)CC1 (stereo unspecified)', 'Percent Effect', '%', 3.7),
  ('CCn1ccnc1CNCC1CCN(CC(O)c2ccccc2)CC1 (stereo unspecified)', 'Percent Effect', '%', 6.02);

* * *

target: Tyrosyl-tRNA synthetase, putative (Trypanosoma cruzi (strain CL Brener)) (UniProt Q4DSP6); assay: Trypanosoma cruzi tyrosyl tRNA synthetase (TcYRS) SOP; type: functional; parameters: scale not given: direction of the effect not stated beside the values; conditions: 30 µM
Sequence (Q4DSP6 as listed by the source): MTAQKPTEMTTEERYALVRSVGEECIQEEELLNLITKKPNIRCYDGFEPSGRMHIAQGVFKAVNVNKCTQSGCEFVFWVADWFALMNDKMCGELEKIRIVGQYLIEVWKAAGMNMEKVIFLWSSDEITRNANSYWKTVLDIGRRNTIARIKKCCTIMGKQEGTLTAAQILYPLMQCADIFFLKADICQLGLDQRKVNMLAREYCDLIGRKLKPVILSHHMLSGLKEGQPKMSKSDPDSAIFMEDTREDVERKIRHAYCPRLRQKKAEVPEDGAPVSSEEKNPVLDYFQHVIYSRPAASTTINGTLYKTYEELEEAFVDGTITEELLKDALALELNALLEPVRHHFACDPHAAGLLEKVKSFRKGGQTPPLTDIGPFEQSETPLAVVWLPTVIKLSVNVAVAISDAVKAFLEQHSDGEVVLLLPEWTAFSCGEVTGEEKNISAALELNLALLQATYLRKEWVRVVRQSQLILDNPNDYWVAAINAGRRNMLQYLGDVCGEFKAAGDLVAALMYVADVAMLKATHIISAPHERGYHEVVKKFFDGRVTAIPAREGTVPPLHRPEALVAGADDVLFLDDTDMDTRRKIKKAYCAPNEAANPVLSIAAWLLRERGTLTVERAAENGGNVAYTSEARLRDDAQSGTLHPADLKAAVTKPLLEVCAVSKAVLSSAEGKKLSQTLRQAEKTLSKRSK
Readings of Percent Effect for the listed molecules
PROPERTY LABEL: Percent Effect (%)

INSERT INTO measurements (molecule, assayed_system, property_label, result_units, obs_value) VALUES
  ('Cn1cc(CN2CCc3onc(COc4cccnc4)c3C2)cn1', 'Tyrosyl-tRNA synthetase, putative (Trypanosoma cruzi (strain CL Brener)) (UniProt Q4DSP6)', 'Percent Effect', '%', 5.13),
  ('COC(=O)[C@H](C)NC(=O)c1cc(-c2cccc(Cl)c2)no1', 'Tyrosyl-tRNA synthetase, putative (Trypanosoma cruzi (strain CL Brener)) (UniProt Q4DSP6)', 'Percent Effect', '%', 10.4),
  ('Cc1nn(C)c2c(NCCCn3cccn3)ncnc12', 'Tyrosyl-tRNA synthetase, putative (Trypanosoma cruzi (strain CL Brener)) (UniProt Q4DSP6)', 'Percent Effect', '%', 15.4),
  ('COCC1c2c(cnn2CC2CC2)CCN1Cc1ccc(OC)cc1 (stereo not given)', 'Tyrosyl-tRNA synthetase, putative (Trypanosoma cruzi (strain CL Brener)) (UniProt Q4DSP6)', 'Percent Effect', '%', 2.5),
  ('Cn1cc(-c2nc(CN3CCc4c(ncn4C4CC4)C3)cs2)cn1', 'Tyrosyl-tRNA synthetase, putative (Trypanosoma cruzi (strain CL Brener)) (UniProt Q4DSP6)', 'Percent Effect', '%', 4.71),
  ('CCn1cc(CN2CCCN(C(=O)c3sccc3C#N)CC2)cn1', 'Tyrosyl-tRNA synthetase, putative (Trypanosoma cruzi (strain CL Brener)) (UniProt Q4DSP6)', 'Percent Effect', '%', 3.8),
  ('CC(OCC1CC1)C(=O)N1CCCN(c2ncccc2C#N)CC1 (stereo not given)', 'Tyrosyl-tRNA synthetase, putative (Trypanosoma cruzi (strain CL Brener)) (UniProt Q4DSP6)', 'Percent Effect', '%', -8.64),
  ('CC(C)(C)n1ncc2c1NC(=O)CC2c1ccccc1 (stereo not given)', 'Tyrosyl-tRNA synthetase, putative (Trypanosoma cruzi (strain CL Brener)) (UniProt Q4DSP6)', 'Percent Effect', '%', 14.6),
  ('COCCNC(=O)CN1CCN(c2nc(C)cs2)C(C)C1 (stereo not given)', 'Tyrosyl-tRNA synthetase, putative (Trypanosoma cruzi (strain CL Brener)) (UniProt Q4DSP6)', 'Percent Effect', '%', 15.8),
  ('COc1ccc(C2CCCN2C(=O)c2csc(NC(C)=O)n2)cc1 (stereo not given)', 'Tyrosyl-tRNA synthetase, putative (Trypanosoma cruzi (strain CL Brener)) (UniProt Q4DSP6)', 'Percent Effect', '%', 12.2),
  ('COc1ccc(CNC(=O)NC(C)Cn2cccn2)cc1O (stereo not given)', 'Tyrosyl-tRNA synthetase, putative (Trypanosoma cruzi (strain CL Brener)) (UniProt Q4DSP6)', 'Percent Effect', '%', 11.8),
  ('Cc1cc(C)n(CC2CCCN2Cc2c(C)noc2C)n1 (stereo not given)', 'Tyrosyl-tRNA synthetase, putative (Trypanosoma cruzi (strain CL Brener)) (UniProt Q4DSP6)', 'Percent Effect', '%', 11.1),
  ('COc1cc(C(C)=O)ccc1OCC(=O)N(C)Cc1cnn(C)c1', 'Tyrosyl-tRNA synthetase, putative (Trypanosoma cruzi (strain CL Brener)) (UniProt Q4DSP6)', 'Percent Effect', '%', 25.9),
  ('Cc1nn(C)c(C)c1C1COCCN1C(=O)c1cnc(N)c(Cl)c1 (stereo not given)', 'Tyrosyl-tRNA synthetase, putative (Trypanosoma cruzi (strain CL Brener)) (UniProt Q4DSP6)', 'Percent Effect', '%', 19.5),
  ('CN(Cc1ccco1)C(=O)CN1CCCCC1Cn1cccn1 (stereo not given)', 'Tyrosyl-tRNA synthetase, putative (Trypanosoma cruzi (strain CL Brener)) (UniProt Q4DSP6)', 'Percent Effect', '%', 9.41),
  ('Cc1nc(COC[C@@H]2CCC[C@@]23CNCCO3)cs1', 'Tyrosyl-tRNA synthetase, putative (Trypanosoma cruzi (strain CL Brener)) (UniProt Q4DSP6)', 'Percent Effect', '%', 2.56),
  ('CN(C)C(=O)CN1C(=O)CCC12CCN(Cc1cccn1C)CC2', 'Tyrosyl-tRNA synthetase, putative (Trypanosoma cruzi (strain CL Brener)) (UniProt Q4DSP6)', 'Percent Effect', '%', 20),
  ('O=C1NCC[C@]12CN(Cc1ccoc1)C[C@H]2c1ccccc1', 'Tyrosyl-tRNA synthetase, putative (Trypanosoma cruzi (strain CL Brener)) (UniProt Q4DSP6)', 'Percent Effect', '%', 6.41),
  ('Cn1ccnc1CN1CCCN(C(=O)c2ccc(Cl)o2)CC1', 'Tyrosyl-tRNA synthetase, putative (Trypanosoma cruzi (strain CL Brener)) (UniProt Q4DSP6)', 'Percent Effect', '%', 1.24),
  ('CCCNC(=O)NCc1cccnc1OC', 'Tyrosyl-tRNA synthetase, putative (Trypanosoma cruzi (strain CL Brener)) (UniProt Q4DSP6)', 'Percent Effect', '%', 10.3),
  ('Cc1ccc(CC(=O)N2Cc3nccn3CC(CN(C)C)C2)cc1 (stereo not given)', 'Tyrosyl-tRNA synthetase, putative (Trypanosoma cruzi (strain CL Brener)) (UniProt Q4DSP6)', 'Percent Effect', '%', 16.1),
  ('CS(=O)(=O)NCc1cnc2n1CCN(Cc1ccsc1)CC2', 'Tyrosyl-tRNA synthetase, putative (Trypanosoma cruzi (strain CL Brener)) (UniProt Q4DSP6)', 'Percent Effect', '%', 3.7),
  ('COc1cccc2c1OCC(C(=O)NC1CCN(S(C)(=O)=O)CC1)C2 (stereo not given)', 'Tyrosyl-tRNA synthetase, putative (Trypanosoma cruzi (strain CL Brener)) (UniProt Q4DSP6)', 'Percent Effect', '%', 17.1),
  ('COc1ncc(C2(O)CCN(Cc3cccs3)CC2)c(OC)n1', 'Tyrosyl-tRNA synthetase, putative (Trypanosoma cruzi (strain CL Brener)) (UniProt Q4DSP6)', 'Percent Effect', '%', 20),
  ('CC(C)c1nc(C2CCCN(C(=O)c3ccc4[nH]cnc4c3)C2)no1 (stereo not given)', 'Tyrosyl-tRNA synthetase, putative (Trypanosoma cruzi (strain CL Brener)) (UniProt Q4DSP6)', 'Percent Effect', '%', 2.35);

Provenance of the data: ChEMBL document CHEMBL3988442
